system.tested: hCRTH2 (Homo sapiens)
Construct: expressed in transfected cells; host or cells: HEK (human embryonic kidney) cells expressing hCRTH2; membrane preparation
measurement.protocol: Radioligand binding assay ([3H]PGD2 competition, HEK-hCRTH2 membranes)
condition: [3H]PGD2 binding, rated A-E (Table A)
metric: Ki

{"compound": "O=C(O)CCCCc1nc2cc(S(=O)(=O)N3CCC(c4ccccc4)CC3)ccc2nc1-c1ccc(Cl)cc1", "Ki": "201 to 700 nM"}
{"compound": "O=C(O)CCCCc1nc2cc(C(=O)N3CCN(c4ccc(F)cc4)CC3)ccc2nc1-c1ccc(Cl)cc1", "Ki": "0.1 to 2 nM"}
{"compound": "O=C(O)CCCCc1nc2cc(C(=O)N[C@@H]3CCCc4cc(F)ccc43)ccc2nc1-c1ccc(F)cc1", "Ki": "0.1 to 2 nM"}
{"compound": "O=C(O)CCCCc1nc2cc(C(=O)N3CC(c4ccc(F)cc4)C3)ccc2nc1-c1ccccc1", "Ki": "0.1 to 2 nM"}
{"compound": "O=C(O)CCCCc1nc2cc(C(=O)N3CCN(c4ccccc4F)CC3)ccc2nc1-c1ccc(Cl)cc1", "Ki": "0.1 to 2 nM"}

Q: Give the measured Ki of CON(C)C(=O)c1ccc2nc(-c3ccccc3)c(CCCCC(=O)O)nc2c1 [15BJ] .
Result: 2.1 to 20 nM

Q: Give the measured Ki of `O=C(O)Cc1cccc(CCc2nc3cc(C(=O)NCc4cccc(F)c4)ccc3nc2-c2ccc(F)cc2)c1` .
Result: 2.1 to 20 nM

Q: Give the measured Ki of O=C(O)CCCCc1nc2cc(C(=O)N3CC[C@@H](c4ccccc4)C3)c(F)cc2nc1-c1ccccc1 [24i] .
Result: 2.1 to 20 nM

* * *

The reader will find reported pKi values listed item by item below.
system.tested: hCRTH2 (Homo sapiens, UniProt Q9Y5Y4)
Construct: expressed in transfected cells; host or cells: HEK (human embryonic kidney) cells expressing hCRTH2; membrane preparation
measurement.protocol: Radioligand binding assay ([3H]PGD2 competition, HEK-hCRTH2 membranes)
condition: [3H]PGD2 binding, rated A-E (Table A)
pKi: −log10 of the molar value.

Reference set, count: 2
{"compound": "O=C(O)CCCCc1nc2cc(C(=O)N3CCC(c4ccccc4)C3)ccc2nc1-c1ccccc1 (centres unmarked) [15AK]", "reported.measurement": "7.70 to 8.68"}
{"compound": "O=C(O)CCCNc1nc2cc(C(=O)N3CC[C@H](c4ccccc4)C3)ccc2nc1-c1ccccc1 [44M]", "reported.measurement": "7.70 to 8.68"}

Q: Hello, I am looking for reported pKi with hCRTH2 (Homo sapiens, UniProt Q9Y5Y4) for C[C@H](c1ccccc1)N(C)C(=O)c1ccc2nc(-c3ccc(F)cc3)c(CCCCC(=O)O)nc2c1 [compound 21] . Could you help?
Result: 8.70 to 10.00

Q: Hello, I am looking for reported pKi with hCRTH2 (Homo sapiens, UniProt Q9Y5Y4) for O=C(O)CCCCc1nc2cc(C(=O)N3CCC4(CC3)CNC4)ccc2nc1-c1ccccc1 [15H] . Could you help?
Result: 6.70 to 7.70

Q: Hello, I am looking for reported pKi with hCRTH2 (Homo sapiens, UniProt Q9Y5Y4) for O=C(O)CCCCc1nc2cc(C(=O)N3CCC4(CC3)COc3ccccc34)ccc2nc1-c1ccccc1 [compound 120] . Could you help?
Result: 7.70 to 8.68

Q: Hello, I am looking for reported pKi with hCRTH2 (Homo sapiens, UniProt Q9Y5Y4) for O=C(O)CCCCc1nc2cc(C(=O)N3CCC(c4cccc(Cl)c4)C3)ccc2nc1-c1ccccc1 (centres unmarked) [15P] . Could you help?
Result: 8.70 to 10.00

Q: Hello, I am looking for reported pKi with hCRTH2 (Homo sapiens, UniProt Q9Y5Y4) for O=C(O)CCCCc1nc2cc(NS(=O)(=O)Cc3ccccc3)ccc2nc1-c1ccccc1 [compound 12] . Could you help?
Result: 6.15 to 6.70

* * *

The reader will find reported pKi values listed item by item below.
system.tested: hCRTH2 (Homo sapiens, UniProt Q9Y5Y4)
Construct: expressed in transfected cells; host or cells: HEK (human embryonic kidney) cells expressing hCRTH2; membrane preparation
Sequence (Q9Y5Y4 1-395): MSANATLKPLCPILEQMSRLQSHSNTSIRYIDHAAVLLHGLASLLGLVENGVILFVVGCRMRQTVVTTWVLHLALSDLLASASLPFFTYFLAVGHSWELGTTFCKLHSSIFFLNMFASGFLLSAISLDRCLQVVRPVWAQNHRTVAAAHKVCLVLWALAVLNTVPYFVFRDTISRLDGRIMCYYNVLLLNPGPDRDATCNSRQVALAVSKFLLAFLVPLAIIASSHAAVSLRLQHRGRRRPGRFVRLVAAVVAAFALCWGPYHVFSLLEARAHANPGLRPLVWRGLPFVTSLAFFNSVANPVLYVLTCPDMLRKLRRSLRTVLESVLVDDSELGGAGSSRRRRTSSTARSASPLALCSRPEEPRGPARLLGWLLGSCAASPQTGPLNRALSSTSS
measurement.protocol: Radioligand binding assay ([3H]PGD2 competition, HEK-hCRTH2 membranes)
condition: [3H]PGD2 competition, Table B
pKi: −log10 of the molar value.

{"compound": "C[C@@H](NC(=O)c1ccc2nc(-c3ccc(F)cc3)c(CCCC(F)(F)C(=O)O)nc2c1)c1ccc(Cl)cc1", "system.tested": "hCRTH2 (Homo sapiens, UniProt Q9Y5Y4)", "pKi": "7.70 to 8.68"}
{"compound": "CS(=O)(=O)c1ccccc1N1CCN(C(=O)c2ccc3nc(-c4ccc(Cl)cc4)c(CCCCC(=O)O)nc3c2)CC1", "system.tested": "hCRTH2 (Homo sapiens, UniProt Q9Y5Y4)", "pKi": "7.70 to 8.68"}
{"compound": "CN(C(=O)c1ccc2nc(-c3ccc(Cl)cc3)c(CCCCC(=O)O)nc2c1)C1NC(=O)c2ccccc21 (stereo not drawn)", "system.tested": "hCRTH2 (Homo sapiens, UniProt Q9Y5Y4)", "pKi": "6.70 to 7.70"}
{"compound": "O=C(O)CCCCc1nc2cc(C(=O)N3CCCC34CCc3ccncc34)ccc2nc1-c1ccc(Cl)cc1 (stereo not drawn)", "system.tested": "hCRTH2 (Homo sapiens, UniProt Q9Y5Y4)", "pKi": "6.70 to 7.70"}
{"compound": "C[C@@H](NC(=O)c1ccc2nc(-c3cccc(C#N)c3)c(CCCCC(=O)O)nc2c1)c1ccc(F)cc1", "system.tested": "hCRTH2 (Homo sapiens, UniProt Q9Y5Y4)", "pKi": "6.70 to 7.70"}

// next entry
Q: Hello, I am looking for reported pKi with hCRTH2 (Homo sapiens, UniProt Q9Y5Y4) for `O=C(O)CCCCc1nc2cc(C(=O)N[C@H]3CCOc4cc(C(F)(F)F)ccc43)ccc2nc1-c1ccc(Cl)cc1` . Could you help?
Result: 7.70 to 8.68

* * *

system.tested: hCRTH2 (Homo sapiens, UniProt Q9Y5Y4)
Construct: expressed in transfected cells; host or cells: HEK (human embryonic kidney) cells expressing hCRTH2; membrane preparation
measurement.protocol: Radioligand binding assay ([3H]PGD2 competition, HEK-hCRTH2 membranes)
condition: [3H]PGD2 competition, Table B
metric: Ki

Reference set, count: 5
{"molecule": "O=C(O)CCCCc1nc2cc(C(=O)N3CCC4(CC3)CNC(=O)c3ccccc34)ccc2nc1-c1ccc(F)cc1", "metric": "Ki", "reported.measurement": "2.1 to 20 nM"}
{"molecule": "O=C(O)CCCCc1nc2cc(C(=O)N3CCC(c4ccc(F)cc4)CC3)ccc2nc1-c1ccc(Cl)cc1", "metric": "Ki", "reported.measurement": "0.1 to 2 nM"}
{"molecule": "C[C@H]1CN(c2ccc(F)cc2)CCN1C(=O)c1ccc2nc(-c3ccc(Cl)cc3)c(CCCCC(=O)O)nc2c1", "metric": "Ki", "reported.measurement": "2.1 to 20 nM"}
{"molecule": "O=C(NCc1ccccc1)c1ccc2nc(-c3ccc(F)cc3)c(CCCC(F)(F)C(=O)O)nc2c1", "metric": "Ki", "reported.measurement": "2.1 to 20 nM"}
{"molecule": "O=C(O)CCCCc1nc2cc(C(=O)N[C@H]3CCOc4cc(Cl)ccc43)ccc2nc1-c1ccc(Cl)cc1", "metric": "Ki", "reported.measurement": "2.1 to 20 nM"}

Q: Give the measured Ki of `C[C@@H](NC(=O)c1ccc2nc(-c3ccc(Cl)cc3)c(CCc3cc(F)cc(CC(=O)O)c3)nc2c1)c1ccc(F)cc1` .
Result: 2.1 to 20 nM

Q: Give the measured Ki of `O=C(c1ccc2nc(-c3ccc(F)cc3)c(CCCC(F)(F)C(=O)O)nc2c1)N1CCN(c2ccccc2)CC1` .
Result: 20.1 to 200 nM

Q: Give the measured Ki of `C[C@H](NC(=O)c1ccc2nc(-c3ccc(Cl)cc3)c(CCCCC(=O)O)nc2c1)c1ccc(F)cn1` .
Result: 0.1 to 2 nM

Q: Give the measured Ki of `CN(Cc1ccccc1)C(=O)c1ccc2nc(-c3ccc(Cl)cc3)c(CCc3cc(F)cc(CC(=O)O)c3)nc2c1` .
Result: 0.1 to 2 nM

Q: Give the measured Ki of `C[C@H](CCCc1nc2cc(C(=O)N[C@@H](C)c3ccc(F)cc3)ccc2nc1-c1ccc(F)cc1)C(=O)O` .
Result: 20.1 to 200 nM

Q: Give the measured Ki of `O=C(O)CCCCc1nc2cc(C(=O)N3CCC4(CC3)Cc3ccccc3C(=O)N4)ccc2nc1-c1ccc(Cl)cc1` .
Result: 2.1 to 20 nM

Q: Give the measured Ki of `C[C@H](NC(=O)c1ccc2nc(-c3ccc(F)cc3)c(CCCCC(=O)O)nc2c1)c1ccc(F)cn1` .
Result: 20.1 to 200 nM

Q: Give the measured Ki of CC1(C)CCC(NC(=O)c2ccc3nc(-c4ccccc4)c(CCCCC(=O)O)nc3c2)c2ccccc21 (stereo not drawn) [compound 296] .
Result: 2.1 to 20 nM

Q: Give the measured Ki of `C[C@H](CCc1nc2cc(C(=O)N[C@@H](C)c3ccc(F)cc3)ccc2nc1-c1ccccc1)CC(=O)O` .
Result: 20.1 to 200 nM

Q: Give the measured Ki of `C[C@@H](CCc1nc2cc(C(=O)N[C@H]3CCCc4ccccc43)ccc2nc1-c1ccccc1)CC(=O)O` .
Result: 20.1 to 200 nM

Q: Give the measured Ki of `O=C(O)CCCCc1nc2cc(C(=O)N[C@H]3CCCc4cc(F)ccc43)ccc2nc1-c1ccccc1` .
Result: 2.1 to 20 nM

Q: Give the measured Ki of O=C(O)CCCCc1nc2cc(C(=O)N3CCC3c3ccccc3)ccc2nc1-c1ccc(Cl)cc1 (stereo not drawn) .
Result: 2.1 to 20 nM

Q: Give the measured Ki of `O=C(N[C@H](c1ccc(F)cc1)C(F)(F)F)c1ccc2nc(-c3ccc(F)cc3)c(CCCC(F)(F)C(=O)O)nc2c1` .
Result: 20.1 to 200 nM
